Test Target: human V1a receptor (Homo sapiens, UniProt P37288)
Construct: expressed in transfected cells; host or cells: CHO K1 (ATCC), also stably transfected with a modified aequorin
Sequence (P37288 whole entry): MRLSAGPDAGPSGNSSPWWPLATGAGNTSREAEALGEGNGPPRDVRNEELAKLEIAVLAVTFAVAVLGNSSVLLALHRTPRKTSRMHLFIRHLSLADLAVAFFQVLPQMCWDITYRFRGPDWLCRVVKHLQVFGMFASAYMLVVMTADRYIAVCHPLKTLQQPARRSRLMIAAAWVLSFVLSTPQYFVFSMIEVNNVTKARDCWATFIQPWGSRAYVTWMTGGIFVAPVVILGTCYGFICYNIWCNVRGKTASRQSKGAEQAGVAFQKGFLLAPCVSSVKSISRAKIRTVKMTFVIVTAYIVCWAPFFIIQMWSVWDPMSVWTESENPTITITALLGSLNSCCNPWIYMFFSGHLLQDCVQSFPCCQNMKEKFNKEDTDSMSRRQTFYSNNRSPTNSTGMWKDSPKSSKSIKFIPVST
Method Notes: Cellular in vitro assay for vasopressin receptor activity, V1a cell line (aequorin luminescence)
Type: cell-based
Measurement Conditions: ratio of the IC50 on human V2 to the IC50 on human V1a
Experimental: B-1. Cellular In Vitro Assay for Determining Vasopressin Receptor Activity The identification of agonists and antagonists of the V1a and V2 vasopressin receptors from humans, rats and dogs as well as the quantification of the activity of the compounds of the invention is carried out using recombinant cell lines. […] The bioluminescence of the cell lines is detected using a suitable luminometer [Milligan G, Marshall F, Rees S, Trends in Pharmacological Sciences 17, 235-237 (1996)]. […]
Would you mind classing the entries by ratio IC50 hV2/hV1a? Ranges: low band: < 0.3; middle band: ≥ 0.3 and < 3; high band: ≥ 3

| Compound | Class |
| --- | --- |
| Cc1ccccc1-n1nc(Cn2nc(-c3ccc(Cl)cc3)n(C[C@H](O)C(F)(F)F)c2=O)nc1C(C)F (mixture of isomers) [Example 34] | middle band |
| CC(F)c1nc(Cn2nc(-c3ccc(Cl)cc3)n(C[C@H](O)C(F)(F)F)c2=O)nn1-c1cnccc1C(F)(F)F (some centres unmarked) [Example 7] | high band |
| O=c1n(Cc2nc(C(F)F)n(-c3ccccc3Cl)n2)nc(-c2ccc(Cl)cc2)n1C[C@H](O)C(F)(F)F [Example 51] | middle band |
| CC(F)(F)c1nc(Cn2nc(-c3ccc(Cl)cc3)n(C[C@H](O)C(F)(F)F)c2=O)nn1-c1ccccc1OC(F)F [Example 63] | high band |
| CCc1ccccc1-n1nc(Cn2nc(-c3ccc(Cl)cc3)n(C[C@H](O)C(F)(F)F)c2=O)nc1C(C)F (single isomer, unassigned) [Example 30] | middle band |
| CC(F)c1nc(Cn2nc(-c3ccc(Cl)cc3)n(C[C@H](O)C(F)(F)F)c2=O)nn1-c1cccc(Cl)c1 (mixture of isomers) [Example 16] | low band |
| CC(F)c1nc(Cn2nc(-c3ccc(Cl)cc3)n(C[C@H](O)C(F)(F)F)c2=O)nn1-c1ccccc1C(F)(F)F (mixture of isomers) [Example 22] | high band |
| CC(F)c1nc(Cn2nc(-c3ccc(Cl)cc3)n(C[C@H](O)C(F)(F)F)c2=O)nn1-c1c(F)cccc1Cl (mixture of isomers) [Example 44] | middle band |
| O=c1n(Cc2nc(C(F)F)n(-c3cccc(Cl)c3)n2)nc(-c2ccc(Cl)cc2)n1C[C@H](O)C(F)(F)F [Example 50] | low band |
| CC(F)c1nc(Cn2nc(-c3ccc(Cl)cc3)n(C[C@H](O)C(F)(F)F)c2=O)nn1-c1cccc(Cl)c1 (single isomer, unassigned) [Example 17] | low band |
| Cc1cccc(C)c1-n1nc(Cn2nc(-c3ccc(Cl)cc3)n(C[C@H](O)C(F)(F)F)c2=O)nc1C(C)(F)F [Example 71] | middle band |
| CC(F)c1nc(Cn2nc(-c3ccc(Cl)cc3)n(C[C@H](O)C(F)(F)F)c2=O)nn1-c1cnccc1C(F)(F)F (single isomer, unassigned) [Example 8] | high band |
| CC(F)(F)c1nc(Cn2nc(-c3ccc(Cl)cc3)n(C[C@H](O)C(F)(F)F)c2=O)nn1-c1cccc(Cl)c1 [Example 55] | low band |
